Answer each item with its documented Soil treatment phytotoxicity, Cotton.
System: cotton
experiment: Phytotoxicity test for field crops (soil treatment test)
Assay type: in vivo
applied_conditions: 50 g ai/ha; Cotton (20 days after treatment)
Answers are plain numbers.

I need Soil treatment phytotoxicity, Cotton for every entry listed below, if you could help.
1. CCOC(=O)OC(C)n1nnn(C)c1=NC(=O)c1ccc(C(F)(F)F)nc1CSCc1nnn(C)n1 (centres unmarked) [Compound No. 4-10]
2. Cn1nnc(COCc2nc(C(F)(F)Cl)ccc2C(=O)Nc2nnnn2C)n1 [Compound No. 2-78]
3. CON(Cc1nnn(C)n1)Cc1nc(C(F)(F)F)ccc1C(=O)Nc1nnnn1C [Compound No. 2-97]
4. Cn1nc(COCc2nc(C(F)(F)F)ccc2C(=O)Nc2nnnn2C)nc1Br [Compound No. 2-136]
5. Cn1nnc(COCc2nc(C(F)(F)F)ccc2C(=O)N(C(=O)c2ccccc2)c2nnnn2C)n1 [Compound No. 2-68]
6. Cc1nc(COCc2nc(C(F)(F)F)ccc2C(=S)Nc2nnnn2C)nn1C [Compound No. 2-117]

1: 1; 2: 6.5; 3: 7; 4: 0; 5: 5; 6: 9

I need Soil treatment phytotoxicity, Cotton for every entry listed below, if you could help.
1. CN(Cc1nnn(C)n1)c1nc(C(F)(F)F)ccc1C(=O)Nc1nnnn1C [Compound No. 2-26]
2. Cn1nnc(COCc2nc(C(F)(F)F)ccc2C(=O)N(c2nnnn2C)S(C)(=O)=O)n1 [Compound No. 2-69]
3. Cn1nnnc1COc1nc(C(F)(F)F)ccc1C(=S)Nc1nnnn1C [Compound No. 1-43]
4. Cc1nc(COCc2nc(C(F)(F)F)ccc2C(=O)Nc2nnnn2C)nn1C [Compound No. 2-116]
5. Cn1nnc(CSCc2nc(C(F)(F)F)ccc2C(=O)N(c2nnnn2C)S(C)(=O)=O)n1 [Compound No. 2-110]
6. Cn1nnnc1COc1nc(C(F)(F)F)ccc1C(=O)Nc1nnnn1C [Compound No. 1-1]
7. Cn1nnc(COCc2nc(C(F)(F)C(F)(F)F)ccc2C(=O)Nc2nnnn2C)n1 [Compound No. 2-81]
8. Cn1nnc(CSCc2nc(C(F)(F)F)ccc2C(=O)N(C(=O)c2ccccc2)c2nnnn2C)n1 [Compound No. 2-109]

1. 4
2. 5
3. 1
4. 3
5. 0
6. 6
7. 4
8. 0

I need Soil treatment phytotoxicity, Cotton for every entry listed below, if you could help.
1. COc1nc(COCc2nc(C(F)(F)F)ccc2C(=O)Nc2nnnn2C)nn1C [Compound No. 2-129]
2. Cn1cnc(COCc2nc(C(F)F)ccc2C(=O)Nc2nnnn2C)n1 [Compound No. 2-85]
3. Cn1ncnc1COc1nc(C(F)(F)F)ccc1C(=O)Nc1nnnn1C [Compound No. 1-45]

1. 0
2. 0
3. 4

I need Soil treatment phytotoxicity, Cotton for every entry listed below, if you could help.
1. Cn1nnnc1NC(=O)c1ccc(C(F)(F)F)nc1OCc1nnnn1C(F)F [Compound No. 1-26]
2. Cn1nnnc1NC(=O)c1ccc(C(F)(F)F)nc1Sc1nnnn1C [Compound No. 1-40]
3. Cn1nc(COCc2nc(C(F)(F)F)ccc2C(=O)Nc2nnnn2C)nc1C#N [Compound No. 2-134]

[0, 0, 1]
